run-description: NCI Yeast Anticancer Drug Screen. Data for the mec2-1 strain (AID 157)
study-conditions: S. cerevisiae mec2-1 strain, at 50.0 µM
The panel holds about 79,000 compounds, 15% with a hit somewhere; the sample as a whole holds those more often. Calls of active or inactive are those of the source. Cut-off read from the data, not from the text of the source: active = growth inhibition above about 70%; inactive = the rest.
Valid outcomes are listed here; reply with one: T (active), F (inactive)

- molecule: "O=C(C#Cc1ccccc1)[O][Sn]([c]1ccccc1)([c]1ccccc1)[c]1ccccc1"
  label-class: "T"

Attention now turns to another entry.
## Task State the result this test recorded for C/C(CC(=O)Nc1cccc(Cl)c1C)=N\NC(=O)c1ccncc1 .
## Result F

---

run-description: NCI Yeast Anticancer Drug Screen. Data for the mec2-1 strain (AID 157)
study-conditions: S. cerevisiae mec2-1 strain, at 50.0 µM, hits give high values
This is part of a sample that, as a whole, favours compounds with a hit. Of some 79,000 tested, about 15% had one in any assay. Where a SMILES comes first, the peptide text is derived from it. The star is where a group is joined. Myristoyl = CCCCCCCCCCCCCC(=O)*
observable: growth inhibition (%)
Answers are plain numbers, in %.

Use these answered entries as a reference point.
- compound: "CCCCCCCCCCCCCC(=O)NCC(=O)NC(C)C(=O)NC(CCCNC(=N)N)C(=O)NC(C)C(=O)NC(CO)C(=O)NC(C(=O)NC(CC(C)C)C(=O)NC(CO)C(=O)NCC(=O)NCC(=O)NC(CCC(=O)O)C(=O)NC(CC(C)C)C(=O)NC(CC(=O)O)C(=O)NC(CCCNC(=N)N)C(=O)NC(Cc1c[nH]c2ccccc12)C(=O)NC(Cc1ccc(O)cc1)C(N)=O)C(C)C (stereo not drawn) (Myristoyl-GARASVLSGGELDRWY-NH2; configuration not given here)"
  growth inhibition (%): -6.9
- compound: "Nc1nc2c(C(=O)NCc3cccs3)nnn2c2cccc(Cl)c12"
  growth inhibition (%): -1.45
- compound: "CCOC(=O)c1c(C(=O)OC)nc2n1-c1ccccc1OC2"
  growth inhibition (%): -36.1

Please go through the list and note growth inhibition for each compound.
1. CC1OC(OCc2ccc(-c3ccccc3)cc2)CC(N)C1O (stereo not drawn)
2. OC(CCN1CCC2CCC(C2)C1)(c1ccccc1)c1ccco1 (stereo not drawn)

## Result
28.9
-3.15

Please go through the list and note growth inhibition for each compound.
1. COc1ccc(C2c3cc4c(cc3OC(N3CCOCC3)C2C)OCO4)cc1 (stereo not drawn)
2. O=[N+]([O-])c1ccc(Cl)c(OCCCBr)c1

## Result
[-22.1, 39.5]
